biological target: human vasopressin V1a receptor (Homo sapiens, UniProt P37288); test: Human vasopressin V1a receptor binding assay; conditions: 1321N1 cell membranes, [3H]vasopressin; read-out: Ki (nM) on hV1a cell line
Sequence (P37288 whole entry): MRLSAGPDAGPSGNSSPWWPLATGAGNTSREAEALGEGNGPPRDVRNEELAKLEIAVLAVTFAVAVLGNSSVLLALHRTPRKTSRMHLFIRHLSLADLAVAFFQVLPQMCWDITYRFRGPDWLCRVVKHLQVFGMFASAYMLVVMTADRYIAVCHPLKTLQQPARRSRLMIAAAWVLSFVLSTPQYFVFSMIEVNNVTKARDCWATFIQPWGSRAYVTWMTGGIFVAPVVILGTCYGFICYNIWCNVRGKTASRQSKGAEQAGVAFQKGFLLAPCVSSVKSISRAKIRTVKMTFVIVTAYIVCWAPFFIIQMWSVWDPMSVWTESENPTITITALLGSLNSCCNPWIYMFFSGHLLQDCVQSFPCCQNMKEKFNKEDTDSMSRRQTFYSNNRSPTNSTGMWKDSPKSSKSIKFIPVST
Classification by Ki follows these ranges: lower: < 0.8 nM; middle: ≥ 0.8 nM and < 2 nM; upper: ≥ 2 nM

CCNC1Cc2cc(Cl)ccc2-n2c(nnc2[C@H]2CC[C@H](Oc3ccccn3)CC2)C1 (some centres unmarked) : middle
OC1Cc2cc(C(F)(F)F)ccc2-n2c(nnc2[C@H]2CC[C@H](Oc3ccccn3)CC2)C1 (some centres unmarked) : upper
O=C(N[C@@H]1Cc2cc(Cl)ccc2-n2c(nnc2[C@H]2CC[C@H](Oc3ccccn3)CC2)C1)C1CC1 : lower
NC1Cc2ccccc2-n2c(nnc2[C@H]2CC[C@H](Oc3ccccn3)CC2)C1 (some centres unmarked) : upper
COC1Cc2cc(F)ccc2-n2c(nnc2[C@H]2CC[C@H](Oc3ccccn3)CC2)C1 (some centres unmarked) : lower
CC[C@]1(OC)CC[C@H](c2nnc3n2-c2ccc(Cl)cc2CC2(C3)OCCO2)CC1 : lower
COC1Cc2cc(Cl)ccc2-n2c(nnc2C2CCN(C3CCOCC3)CC2)C1 (centres unmarked) : upper
CN1C[C@]2(CC[C@H](c3nnc4n3-c3ccc(Cl)cc3CC3(C4)OCCO3)CC2)OC1=O : middle
CO[C@]1(C(F)(F)F)CC[C@H](c2nnc3n2-c2ccc(Cl)cc2CC2(C3)OCCO2)CC1 : middle
CC(=O)NC1Cc2cc(Cl)ccc2-n2c(nnc2C2CCN(c3ccccn3)CC2)C1 (centres unmarked) : upper

---

molecular target: human vasopressin V1a receptor (Homo sapiens); test: Functional assay on human vasopressin V1a receptor expressing cell line (intracellular Ca2+ fluorescence); type: cell-based; settings: 1321N1 cells, (Arg8)-vasopressin at EC80; read-out: IC50 (nM) on hV1a cell line
Counter-ions that a name gives are not always drawn.
Param label: returns Condition met when IC50 < 3 nM, returns Condition not met otherwise, including exact equality.

FC(F)(F)[C@H]1CC[C@H](c2nnc3n2-c2ccc(Cl)cc2CC2(C3)OCCO2)CC1 : Condition met
FC(F)(F)[C@H]1CC[C@H](c2nnc3n2-c2ccc(Br)cc2CC2(C3)OCCO2)CC1 : Condition met
CC(C)(C)OC(=O)NC1Cc2cc(C(F)(F)F)ccc2-n2c(nnc2[C@H]2CC[C@H](Oc3ccccn3)CC2)C1 (stereo partly shown) : Condition not met
CO[C@H]1Cc2cc(F)ccc2-n2c(nnc2[C@H]2CC[C@H](Oc3ccccn3)CC2)C1 (single isomer, unassigned) : Condition met
O=C1Cc2cc(Br)ccc2-n2c(nnc2[C@H]2CC[C@H](C(F)(F)F)CC2)C1 : Condition not met
Clc1ccc2c(c1)C[C@H](NC1CCCC1)Cc1nnc([C@H]3CC[C@H](Oc4ccccn4)CC3)n1-2 : Condition not met
Fc1ccc2c(c1)CC1(Cc3nnc([C@H]4CC[C@H](Oc5ccccn5)CC4)n3-2)OCCO1 : Condition met
Clc1ccc2c(c1)CC1(Cc3nnc(C4CN(c5ncccn5)C4)n3-2)OCCO1 : Condition not met
CC(C)NC1Cc2cc(C#N)ccc2-n2c(nnc2[C@H]2CC[C@H](Oc3ccccn3)CC2)C1 (stereo partly shown) [Example 82, trifluoroacetate] : Condition not met
Clc1ccc2c(c1)CC1(Cc3nnc([C@@H]4CCN(Cc5ccccn5)C4)n3-2)OCCO1 : Condition not met
COC1Cc2cc(Cl)ccc2-n2c(nnc2C2CCN(C3CCOCC3)CC2)C1 (stereo not shown) : Condition not met
CC(C)(C)C(=O)N[C@H]1Cc2cc(Cl)ccc2-n2c(nnc2[C@H]2CC[C@H](Oc3ccccn3)CC2)C1 : Condition not met
CC(C)(C)OC(=O)NC1Cc2cc(Cl)ccc2-n2c(nnc2[C@H]2CC[C@H](Oc3ccccn3)CC2)C1 (stereo partly shown) : Condition not met
